# system under test: NK1 receptor (Meriones unguiculatus (Mongolian jird) (Gerbillus unguiculatus))
# method notes: Effect on GR73632-induced foot-tapping
# Type: in vivo
# condition context: male gerbil, 0.1 mg/kg iv, GR73632 icv after four hours
Field: Inhibition (foot-tapping inhibition rate). Provide a value for each of the compounds that follow.
State the answer as a number, implicitly in %.

Known value: NK1 receptor (Meriones unguiculatus (Mongolian jird) (Gerbillus unguiculatus)) Inhibition (foot-tapping inhibition rate) of the compound "Cc1cc(F)ccc1-c1cc([C@H]2CC[C@H](CC(=O)O)CC2)nc(C#N)c1N(C)C(=O)C(C)(C)c1cc(C(F)(F)F)cc(C(F)(F)F)c1" equals 100

Known value: NK1 receptor (Meriones unguiculatus (Mongolian jird) (Gerbillus unguiculatus)) Inhibition (foot-tapping inhibition rate) of the compound Cc1ccccc1-c1cc(C2CCC(CC(=O)O)CC2)ncc1N(C)C(=O)C(C)(C)c1cc(C(F)(F)F)cc(C(F)(F)F)c1 (stereo not drawn) equals 75

Known value: NK1 receptor (Meriones unguiculatus (Mongolian jird) (Gerbillus unguiculatus)) Inhibition (foot-tapping inhibition rate) of the compound Cc1cc(F)ccc1-c1cc(C2CCC(C(=O)O)CC2)ncc1N(C)C(=O)C(C)(C)c1cc(C(F)(F)F)cc(C(F)(F)F)c1 (stereo not drawn) equals 98

Known value: NK1 receptor (Meriones unguiculatus (Mongolian jird) (Gerbillus unguiculatus)) Inhibition (foot-tapping inhibition rate) of the compound Cc1cc(F)ccc1-c1cc(C2CCC(CC(=O)O)CC2)nc(C)c1N(C)C(=O)C(C)(C)c1cc(C(F)(F)F)cc(C(F)(F)F)c1 (stereo not drawn) equals 100

Known value: NK1 receptor (Meriones unguiculatus (Mongolian jird) (Gerbillus unguiculatus)) Inhibition (foot-tapping inhibition rate) of the compound Cc1cc(F)ccc1-c1cc(C2(C)CCCC(CC(=O)O)C2)ncc1N(C)C(=O)C(C)(C)c1cc(C(F)(F)F)cc(C(F)(F)F)c1 (stereo not drawn) equals 77

Known value: NK1 receptor (Meriones unguiculatus (Mongolian jird) (Gerbillus unguiculatus)) Inhibition (foot-tapping inhibition rate) of the compound "Cc1cc(F)ccc1-c1cc([C@H]2CC[C@@H](CC(=O)O)CC2)ncc1N(C)C(=O)C(C)(C)c1cc(C(F)(F)F)cc(C(F)(F)F)c1" equals 99

----------
# method notes: Ferret pharmacokinetic test
# Assay type: in vivo
# condition context: plasma; male ferret, 1 mg/kg oral; read-out: Cmax (maximum plasma test compound concentration)
property label: Cmax
Note: a bare number is incomplete; add the unit.

Cmax recorded for this molecule, "Cc1cc(F)ccc1-c1cc([C@H]2CC[C@H](CC(=O)O)CC2)ncc1N(C)C(=O)C(C)(C)c1cc(C(F)(F)F)cc(C(F)(F)F)c1" , is 1260 ng/mL

----------
# system under test: NK1 receptor (Meriones unguiculatus (Mongolian jird) (Gerbillus unguiculatus), UniProt Q5DUB1)
# Sequence (Q5DUB1 whole entry): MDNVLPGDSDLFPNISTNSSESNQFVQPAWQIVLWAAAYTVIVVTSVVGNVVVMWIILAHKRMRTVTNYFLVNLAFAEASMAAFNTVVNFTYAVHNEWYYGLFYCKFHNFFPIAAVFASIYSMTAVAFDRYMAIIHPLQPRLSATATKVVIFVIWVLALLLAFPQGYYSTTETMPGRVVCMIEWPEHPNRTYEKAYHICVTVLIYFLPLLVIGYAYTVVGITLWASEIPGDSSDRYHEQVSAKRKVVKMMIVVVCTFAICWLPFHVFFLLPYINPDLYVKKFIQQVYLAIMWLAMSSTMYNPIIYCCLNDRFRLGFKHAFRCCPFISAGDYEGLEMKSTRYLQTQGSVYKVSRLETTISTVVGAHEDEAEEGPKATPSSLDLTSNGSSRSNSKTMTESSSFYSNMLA
# method notes: Effect on GR73632-induced foot-tapping
# Assay type: in vivo
# condition context: male gerbil, 0.1 mg/kg iv, GR73632 icv after four hours
Field: Inhibition (foot-tapping inhibition rate). Provide a value for each of the molecules that follow.
State the answer as a number, implicitly in %.

Inhibition (foot-tapping inhibition rate) recorded for this molecule, Cc1cc(F)ccc1-c1cc(C2CCCC(CC(=O)O)C2)ncc1N(C)C(=O)C(C)(C)c1cc(C(F)(F)F)cc(C(F)(F)F)c1 (stereo not drawn) , is 100

Inhibition (foot-tapping inhibition rate) recorded for this molecule, Cc1cc(F)ccc1-c1cc(C2CCC(C(C)C(=O)O)CC2)ncc1N(C)C(=O)C(C)(C)c1cc(C(F)(F)F)cc(C(F)(F)F)c1 (stereo not drawn) , is 97

Inhibition (foot-tapping inhibition rate) recorded for this molecule, Cc1ccccc1-c1cc(C2CCC(CC(=O)O)CC2)nc(C#N)c1N(C)C(=O)C(C)(C)c1cc(C(F)(F)F)cc(C(F)(F)F)c1 (stereo not drawn) , is 93

----------
# system under test: NK1 receptor (Meriones unguiculatus (Mongolian jird) (Gerbillus unguiculatus), UniProt Q5DUB1)
# method notes: Effect on GR73632-induced foot-tapping
# Format: in vivo
# condition context: male gerbil, 0.1 mg/kg iv, GR73632 icv after four hours
Field: Inhibition (foot-tapping inhibition rate). Provide a value for each of the molecules that follow.
Note: a bare number is incomplete; add the unit.

Inhibition (foot-tapping inhibition rate) recorded for this molecule, Cc1cc(F)ccc1-c1cc(C2CCC(CC(=O)O)CC2)nc(C#N)c1N(C)C(=O)C(C)(C)c1cc(C(F)(F)F)cc(C(F)(F)F)c1 (centres unmarked) , is 100%

Inhibition (foot-tapping inhibition rate) recorded for this molecule, "Cc1cc(F)ccc1-c1cc([C@H]2CC[C@H](C(C)(C)C(=O)O)CC2)ncc1N(C)C(=O)C(C)(C)c1cc(C(F)(F)F)cc(C(F)(F)F)c1" , is 95%

Inhibition (foot-tapping inhibition rate) recorded for this molecule, "Cc1cc(F)ccc1-c1cc([C@H]2CC[C@@H](CC(=O)O)CC2)nc(C#N)c1N(C)C(=O)C(C)(C)c1cc(C(F)(F)F)cc(C(F)(F)F)c1" , is 100%

Inhibition (foot-tapping inhibition rate) recorded for this molecule, Cc1cc(F)ccc1-c1cc(C2CCC(C)(CC(=O)O)CC2)ncc1N(C)C(=O)C(C)(C)c1cc(C(F)(F)F)cc(C(F)(F)F)c1 (centres unmarked) , is 100%

Inhibition (foot-tapping inhibition rate) recorded for this molecule, "Cc1cc(F)ccc1-c1cc([C@H]2CC[C@H](CC(=O)O)CC2)ncc1N(C)C(=O)C(C)(C)c1cc(C(F)(F)F)cc(C(F)(F)F)c1" , is 100%

Inhibition (foot-tapping inhibition rate) recorded for this molecule, Cc1cc(F)ccc1-c1cc(C2CCC3(CC2)CC3C(=O)O)ncc1N(C)C(=O)C(C)(C)c1cc(C(F)(F)F)cc(C(F)(F)F)c1 (centres unmarked) , is 90%

Inhibition (foot-tapping inhibition rate) recorded for this molecule, Cc1cc(F)ccc1-c1cc(C2CCC(CCC(=O)O)CC2)ncc1N(C)C(=O)C(C)(C)c1cc(C(F)(F)F)cc(C(F)(F)F)c1 (centres unmarked) , is 100%

Inhibition (foot-tapping inhibition rate) recorded for this molecule, Cc1cc(F)ccc1-c1cc(C2CCC(CC(=O)O)CC2)nc(CO)c1N(C)C(=O)C(C)(C)c1cc(C(F)(F)F)cc(C(F)(F)F)c1 (centres unmarked) , is 95%

----------
# method notes: Ferret pharmacokinetic test
# Format: in vivo
# condition context: male ferret, 0.1 mg/kg intravenous, plasma; read-out: Vss (steady-state volume of distribution)
property label: Vd (L/kg)
State the answer as a number, implicitly in L/kg.

Vd recorded for this compound, Cc1cc(F)ccc1-c1cc([C@H]2CC[C@H](CC(=O)O)CC2)ncc1N(C)C(=O)C(C)(C)c1cc(C(F)(F)F)cc(C(F)(F)F)c1 [Example 13] , is 0.401

----------
# method notes: Ferret pharmacokinetic test
# Format: in vivo
# condition context: male ferret, 0.1 mg/kg intravenous, plasma; read-out: CL tot (total body clearance)
# Protocol: Ferret Pharmacokinetic Test […] Under anesthesia with isoflurane, 0.1 mg/kg of the test compound was intravenously administered to a male ferret (Marshall BioResources Japan) from the femoral vein. […] Through a quantitative analysis using liquid chromatography-mass spectrometry (LC/MS), the concentrations of the test compound in the plasma were measured. […]
property label: clearance (mL/min/kg)
State the answer as a number, implicitly in mL/min/kg.

clearance recorded for this compound, "Cc1cc(F)ccc1-c1cc([C@H]2CC[C@H](CC(=O)O)CC2)ncc1N(C)C(=O)C(C)(C)c1cc(C(F)(F)F)cc(C(F)(F)F)c1" , is 0.13

----------
# method notes: Ferret pharmacokinetic test
# Type: in vivo
# condition context: male ferret, 0.1 mg/kg intravenous, plasma; read-out: t1/2 (half-life)
property label: half-life (h)
State the answer as a number, implicitly in h.

half-life recorded for this molecule, "Cc1cc(F)ccc1-c1cc([C@H]2CC[C@H](CC(=O)O)CC2)ncc1N(C)C(=O)C(C)(C)c1cc(C(F)(F)F)cc(C(F)(F)F)c1" , is 41.5
